- Species on record: Rattus norvegicus
- test.summary: Inhibition of VGLUT in rat synaptic vesicles assessed as glutamate uptake at 5 mM relative to control
- Parameters: scale not given: the % may be the effect or the level left
endpoint.name: Activity (%)

These solved cases illustrate the format of a correct answer.
O=C1NC(=O)C(Cc2ccccc2)N1 (centres undefined) :: 80
COC(=O)c1ccc(-c2ccc(C3NC(=O)NC3=O)cc2)cc1 (centres undefined) :: 95
O=Cc1ccc(C2NC(=O)NC2=O)s1 (racemic) :: 5
O=C1NC(=O)C(c2ccc(C3NC(=O)NC3=O)cc2)N1 (centres undefined) :: 78
Cc1cc(C2NC(=O)NC2=O)sc1C (centres undefined) :: 93

[A] O=C1NC(=O)C(c2ccccc2S(=O)(=O)O)N1 (centres undefined)
[B] Cc1ccc(C2NC(=O)NC2=O)s1 (centres undefined)
[C] O=C1NC(=O)C(c2ccc(C3NC(=O)NC3=O)s2)N1 (centres undefined)
[D] CN(C)c1ccc(C2NC(=O)NC2=O)cc1 (centres undefined)
// query Order each entry by recorded Activity, climbing from the minimum. Response format: the labels, sorted as the prompt asks.
// result C, D, B, A

* * *

- system.tested: Cystine/glutamate transporter (Homo sapiens)
- test.summary: Inhibition of cystine/glutamate transporter in human SNB19 cells assessed as [3H]glutamate uptake at 500 uM
- Assay type: cell-based
- Set-up: scale not given: the % may be the effect or the level left
- test.conditions: SNB-19
endpoint.name: Activity (%)

CN(C)c1ccc(/C=C/C2NC(=O)NC2=O)cc1 (stereo not drawn) :: 90

[P] O=C1NC(=O)C(c2ccc(C3NC(=O)NC3=O)s2)N1 (stereo not drawn)
[Q] Cc1cc(C2NC(=O)NC2=O)sc1C (stereo not drawn)
// query Which has the smaller recorded Activity, P or Q ? Pick one; state its label.
// result P
(P: 51%, Q: 87%)

[A] Cc1ccc(C2NC(=O)NC2=O)s1 (stereo not drawn)
[B] O=C1NC(=O)C(c2ccccc2S(=O)(=O)O)N1 (stereo not drawn)
// query Exercise: compare A and B ; which one has the greater Activity? // output: label of the selected item
// result B
(B: 100%, A: 66%)

[a] O=Cc1ccc(C2NC(=O)NC2=O)s1 (racemic)
[b] O=C1NC(=O)C(c2c[nH]cn2)N1 (stereo not drawn)
[c] O=C1NC(=O)C(c2csc3ccccc23)N1 (stereo not drawn)
// query Arrange items by their Activity values in increasing order. Please list the labels according to the requested order.
// result a, b, c
(a: 49%, b: 82%, c: 118%)

[1] CN(C)c1ccc(C2NC(=O)NC2=O)cc1 (stereo not drawn)
[2] O=C1NC(=O)C(Cc2ccccc2)N1 (stereo not drawn)
// query Between 1 and 2 , whose recorded Activity is greater? Return value: the label identifying the chosen record.
// result 1

* * *

- system.tested: Cystine/glutamate transporter (Homo sapiens) (UniProt Q9UPY5)
- Sequence (Q9UPY5 whole entry): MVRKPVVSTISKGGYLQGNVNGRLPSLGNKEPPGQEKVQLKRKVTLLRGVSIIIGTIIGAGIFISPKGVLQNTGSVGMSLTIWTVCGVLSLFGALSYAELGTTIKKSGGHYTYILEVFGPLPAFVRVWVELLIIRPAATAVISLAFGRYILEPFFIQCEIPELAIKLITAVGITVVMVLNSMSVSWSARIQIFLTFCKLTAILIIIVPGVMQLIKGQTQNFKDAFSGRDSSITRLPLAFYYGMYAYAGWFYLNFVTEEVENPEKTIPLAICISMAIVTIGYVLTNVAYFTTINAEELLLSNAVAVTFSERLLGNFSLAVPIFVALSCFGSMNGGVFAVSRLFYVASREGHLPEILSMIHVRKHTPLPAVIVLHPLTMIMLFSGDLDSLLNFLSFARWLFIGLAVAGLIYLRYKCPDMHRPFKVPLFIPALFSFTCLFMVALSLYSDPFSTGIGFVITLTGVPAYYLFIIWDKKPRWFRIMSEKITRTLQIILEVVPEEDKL
- test.summary: Inhibition of cystine/glutamate transporter in human SNB19 cells assessed as [3H]glutamate uptake at 500 uM
- Format: cell-based
- Parameters: scale not given: the % may be the effect or the level left
- test.conditions: SNB-19
endpoint.name: Activity (%)

O=C1NC(=O)C(c2ccc(S(=O)(=O)O)cc2S(=O)(=O)O)N1 (racemic) :: 100
O=C1NC(c2cccc3ccccc23)C(=O)N1CCCN1C(=O)NC(c2cccc3ccccc23)C1=O (centres undefined) :: 80

[I] N[C@@H](CS)C(=O)O
[II] O=C1NC(c2cccc3ccccc23)C(=O)N1CCCCN1C(=O)NC(c2cccc3ccccc23)C1=O (centres undefined)
// query Hello, I am sorting some records. Could you say if I or II has the smaller Activity value? Field: selected label. Fill in the label of the entry you choose.
// result I
(I: 22%, II: 92%)
